systemTested: T1, KRAS (UniProt P01116-2 1-188, limits assumed)
T1 construct: Target antigen in phage ELISA; construct not described
protocolDescription: phage ELISA on target antigen, signal as % of parental WT
Task for the reader: assign each of the following binders its reported % antigen binding activity retained (relative to parental).

Inquiry: Could you please provide reported % antigen binding activity retained (relative to parental) for KRAS mut8 (designed binder, Net charge 12; Tested on phage) DLGKKLLEAARAGQNDKVRILMANGAKVNARDHTGFTPLHLAAQHGHRKIVKVLLKNGAKVNAVDWFGRTPLHLAAKMGHLEIVKVLLKHGANVKADDHNGRTPLHLAAWEGHLEIVKVLLKYGAKVNAQDKFGKTAFDISIENGNEKLAKILQKL ? Thanks!
Reply text: > 50%

Inquiry: Could you please provide reported % antigen binding activity retained (relative to parental) for KRAS mut7 (designed binder, Net charge 11; Tested on phage) DLGKKLLEAARAGQNDKVRILMANGANVNARDHTGFTPLHLAAQHGHLEIVKVLLKNGAKVNAVDWFGRTPLHLAAKMGHRKIVKVLLKHGANVKADDHNGRTPLHLAAWEGHLEIVKVLLKYGAKVNAQDKFGKTAFDISIENGNEKLAKILQKL ? Thanks!
Reply text: > 50%

Inquiry: Could you please provide reported % antigen binding activity retained (relative to parental) for KRAS mut10 (designed binder, Net charge 15; Tested on phage) DLGKKLLEAARAGQNDKVRILMANGAKVNARDHTGFTPLHLAAQHGHRKIVKVLLKNGAKVNAVDWFGRTPLHLAAKMGHLEIVKVLLKHGANVKADDHNGRTPLHLAAWEGHRKIVKVLLKYGAKVNAQDKFGKTAFDISVENGNEKLAKILQKL ? Thanks!
Reply text: > 50%
